Target: 5-hydroxytryptamine receptor 2B (Homo sapiens)
Sequence (P41595 whole entry): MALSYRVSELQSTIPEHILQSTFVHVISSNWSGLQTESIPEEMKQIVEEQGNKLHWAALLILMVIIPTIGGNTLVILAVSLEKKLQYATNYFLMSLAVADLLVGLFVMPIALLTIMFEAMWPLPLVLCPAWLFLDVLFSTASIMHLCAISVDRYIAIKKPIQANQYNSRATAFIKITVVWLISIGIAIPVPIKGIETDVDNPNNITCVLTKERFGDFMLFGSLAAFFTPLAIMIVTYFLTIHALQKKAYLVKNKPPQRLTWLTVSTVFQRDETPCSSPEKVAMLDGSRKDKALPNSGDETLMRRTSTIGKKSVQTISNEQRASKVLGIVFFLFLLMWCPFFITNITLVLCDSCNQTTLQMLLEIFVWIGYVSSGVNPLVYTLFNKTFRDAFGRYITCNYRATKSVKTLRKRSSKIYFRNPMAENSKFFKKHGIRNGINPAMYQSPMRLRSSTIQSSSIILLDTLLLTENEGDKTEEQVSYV
Experiment: Agonist activity at recombinant human 5HT2B receptor expressed in Flp-In-293 cells assessed as calcium flux by FLIPR assay
Assay Endpoint: EC50 (nM)
Give bare numbers, in nM.

Query block: Please provide the recorded EC50 for C=CCOc1cc(F)c(Cl)cc1C1CC1CN (stereo unspecified) , tested on 5-hydroxytryptamine receptor 2B (Homo sapiens).
Result block: 1950

###

Biological target: 5-hydroxytryptamine receptor 2C (Homo sapiens, UniProt P28335)
Sequence (P28335 whole entry): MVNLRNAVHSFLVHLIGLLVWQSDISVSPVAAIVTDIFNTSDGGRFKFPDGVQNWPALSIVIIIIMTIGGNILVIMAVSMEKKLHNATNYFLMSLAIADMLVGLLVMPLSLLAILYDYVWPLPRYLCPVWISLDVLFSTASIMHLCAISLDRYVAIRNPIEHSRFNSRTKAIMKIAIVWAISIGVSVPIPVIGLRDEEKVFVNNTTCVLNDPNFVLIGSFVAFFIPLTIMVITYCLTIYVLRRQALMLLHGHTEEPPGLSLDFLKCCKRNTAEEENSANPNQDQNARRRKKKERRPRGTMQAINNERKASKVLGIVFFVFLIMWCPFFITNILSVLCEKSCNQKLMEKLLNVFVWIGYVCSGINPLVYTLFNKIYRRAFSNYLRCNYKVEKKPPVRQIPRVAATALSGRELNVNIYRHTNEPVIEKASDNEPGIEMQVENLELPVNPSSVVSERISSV
Assay: Agonist activity at recombinant human 5HT2C-INI receptor expressed in Flp-In-293 cells assessed as calcium flux by FLIPR assay
Please provide measured pEC50 for the entries that follow.
Numbers only, as −log10 of the molar value.

- COc1cc(Cl)c(Cl)cc1C1CC1CN (stereo not given): 7.89
- N[C@@H](Cc1c[nH]c2ccc(O)cc12)C(=O)O: 9.66
- C=CCOc1ccc(F)c(F)c1C1CC1CN (stereo not given): 6.82

For each of the items listed, what is its pEC50?
1. COc1ccc(Cl)c(Cl)c1C1CC1CN (stereo not given)
2. C=CCOc1cc(F)c(Cl)cc1C1CC1CN (stereo not given)
3. NCC1CC1c1cc(Cl)c(F)cc1OCCF (stereo not given)
4. NCC1CC1c1c(OCCF)ccc(F)c1F (stereo not given)

Result block:
1. 8.96
2. 6.51
3. 6.11
4. 6.29

For each of the items listed, what is its pEC50?
1. COc1ccc(F)c(F)c1C1CC1CN (stereo not given)
2. NCC1CC1c1c(OCCF)ccc(Cl)c1Cl (stereo not given)
3. NCC1CC1c1c(OCCF)ccc(Cl)c1F (stereo not given)

Result block:
1. 7.82
2. 6.63
3. 6.41
